# protocol_notes: E. coli acrAB mutant growth effects, primary screen, E. coli filamentation inducers, strain DRC39, OD650, 24 h (AID 1178);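 note: growth measured as culture turbidity by optical density at 650 nm; test concentration not given here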
# run_conditions: higher = more signal, called active from +8 up or from −8 down
Entries and their z-score values follow.
Number only, please.

For orientation, consider the following solved cases.
>  <molecule>
CN1C(=O)C2C=CC(C(O)c3cc(C(F)(F)F)cc(C(F)(F)F)c3)N(N3CCCCC3)C2C1=O (centres undefined)

>  <value_reported>
-0.289

$$$$
>  <molecule>
C=C[C@H](COC(C)=O)N(C(=O)OC(C)(C)C)S(=O)(=O)c1ccc(Br)cc1

>  <value_reported>
0.623

$$$$
>  <molecule>
NCCCCCNC(=O)[C@@H]1C[C@@H]2C(=O)N[C@@H](Cc3ccccc3)C(=O)N2[C@@H]1c1cccc(OCCO)c1

>  <value_reported>
-0.297

$$$$

Moving on to the next molecule.
Look up z-score: CCCCCN1CC=CC23O[C@@H]4/C=C\CCCOC(=O)C4[C@H]2C(=O)N(C(CO)C(C)C)[C@@H]3C1=O (some centres undefined)
0.299
